Across several publications, the following Ki results were reported for Rho-associated protein kinase 1 (Homo sapiens, UniProt Q13464).

# count of solved cases: 2
| compound | Ki |
| --- | --- |
| CN(C)CCCNc1cccc(-c2c[nH]c3ncc(Cl)cc23)n1 | 500 to 5000 nM |
| O=C(Cc1cccc(OCCCn2ccnc2)c1)Nc1nc(-c2c[nH]c3nccc(F)c23)cs1 | < 500 nM |

Param item = C[C@H](Nc1cc(NCCO)nc(-c2c[nH]c3ncc(Cl)cc23)n1)C(=O)NCC(F)(F)F ; retrieve measured Ki. 500 to 5000 nM

Param item = CC1=C(C(=O)Nc2ccc3[nH]ncc3c2)C(c2ccc(F)cc2)n2nc(C(=O)N3CCOCC3)cc2N1 (centres unmarked) ; retrieve measured Ki. < 50 nM
